# tested system: human ether-à-go-go-related gene (hERG) potassium channel (human);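 also: peak tail current of the secondary pulse compared with the same well before compound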
# protocol: primary screen, population patch clamp on CHO cells stably expressing hERG; higher = less effect of the substance
In all, about 310,000 compounds went through this assay and about 14,000 (4.5%) showed an effect of 50% or more. The effect is printed as a negative number. The list comes from a sample in which strong results are over-represented; it also holds close analogues and randomly drawn compounds.
The following molecules are listed with their measured hERG current change (%, negative = inhibition) at 10uM values.
quantity kind: hERG current change (%, negative = inhibition) at 10uM (%)

- molecule: "NC(=O)CC(NC(=O)Cc1ccc(Br)cc1)c1ccc(NC2CCN(Cc3ccccc3)CC2)c([N+](=O)[O-])c1 (stereo not shown)"
  measured result: -45.8
- molecule: "COC(=O)C1=C(C)N(c2cccc3ccccc23)C(=O)C1"
  measured result: -6.64
- molecule: "NC(=O)CC(NC(=O)c1cccc(Br)c1)c1ccc(NC2CCN(Cc3ccccc3)CC2)c([N+](=O)[O-])c1 (stereo not shown)"
  measured result: 6.8
- molecule: "O=[N+]([O-])c1cc(C(F)(F)F)ccc1NC1CCN(Cc2ccccc2)CC1"
  measured result: -68

---

Recorded hERG current change (%, negative = inhibition) at 10uM for the following compounds
# tested system: human ether-à-go-go-related gene (hERG) potassium channel (human, UniProt Q12809);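 also: peak tail current of the secondary pulse compared with the same well before compound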
# Sequence (Q12809 whole entry, looked up): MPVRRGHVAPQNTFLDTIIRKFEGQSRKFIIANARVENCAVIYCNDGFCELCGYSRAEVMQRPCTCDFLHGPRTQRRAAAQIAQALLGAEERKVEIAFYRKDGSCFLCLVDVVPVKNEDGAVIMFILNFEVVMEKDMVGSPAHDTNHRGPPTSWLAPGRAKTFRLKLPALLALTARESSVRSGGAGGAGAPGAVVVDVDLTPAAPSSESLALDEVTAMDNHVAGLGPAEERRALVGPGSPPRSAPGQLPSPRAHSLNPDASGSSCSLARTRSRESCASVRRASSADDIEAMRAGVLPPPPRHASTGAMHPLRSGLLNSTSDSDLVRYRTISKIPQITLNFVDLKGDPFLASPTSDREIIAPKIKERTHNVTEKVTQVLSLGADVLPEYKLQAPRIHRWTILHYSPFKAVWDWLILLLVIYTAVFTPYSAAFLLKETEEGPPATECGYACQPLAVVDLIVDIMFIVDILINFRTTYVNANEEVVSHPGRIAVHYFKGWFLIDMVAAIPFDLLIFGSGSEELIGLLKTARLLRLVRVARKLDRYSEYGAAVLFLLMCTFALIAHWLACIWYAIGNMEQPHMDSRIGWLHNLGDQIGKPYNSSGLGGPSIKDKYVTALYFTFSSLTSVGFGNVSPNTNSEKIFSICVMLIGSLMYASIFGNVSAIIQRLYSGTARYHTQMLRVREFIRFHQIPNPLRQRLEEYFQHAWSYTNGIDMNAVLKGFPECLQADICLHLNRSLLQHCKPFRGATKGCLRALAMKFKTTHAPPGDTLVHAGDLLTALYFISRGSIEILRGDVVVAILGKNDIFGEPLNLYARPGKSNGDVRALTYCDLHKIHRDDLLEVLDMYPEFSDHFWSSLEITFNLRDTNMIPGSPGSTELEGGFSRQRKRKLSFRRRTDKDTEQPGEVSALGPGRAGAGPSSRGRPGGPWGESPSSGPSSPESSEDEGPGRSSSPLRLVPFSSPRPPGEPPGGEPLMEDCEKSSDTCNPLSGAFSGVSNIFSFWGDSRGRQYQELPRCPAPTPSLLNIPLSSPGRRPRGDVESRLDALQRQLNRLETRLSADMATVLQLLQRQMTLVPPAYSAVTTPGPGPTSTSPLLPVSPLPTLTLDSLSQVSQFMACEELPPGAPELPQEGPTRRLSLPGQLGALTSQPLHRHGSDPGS
# protocol: primary screen, population patch clamp on CHO cells stably expressing hERG; higher = less effect of the substance
# Method: Briefly, Chinese hamster ovary (CHO) cells stably expressing the hERG channel were dislodged from tissue culture flasks and dispensed into PPC plates. […] During the recording, background leak currents were estimated by a 100 ms step to -80 mV from an initial holding potential of -70 mV and subtracted from the subsequent current measurement. The campaign was conducted in two phases using slight differences in recording protocol. […]
In all, about 310,000 compounds went through this assay and about 14,000 (4.5%) showed an effect of 50% or more. The effect is printed as a negative number. Shown is part of a subset that was picked to be rich in strong results.
quantity kind: hERG current change (%, negative = inhibition) at 10uM (%)

- compound: "O=C(C1=C(O)C(=O)N(CC2CCCO2)C1c1ccc(Cl)cc1Cl)c1ccco1 (stereo not drawn)"
  tested system: "human ether-à-go-go-related gene (hERG) potassium channel (human, UniProt Q12809)"
  units label: "%"
  measured result: 18.5
- compound: "O=C(NCCCN1CCOCC1)c1ccccc1NS(=O)(=O)c1ccc(F)cc1"
  tested system: "human ether-à-go-go-related gene (hERG) potassium channel (human, UniProt Q12809)"
  units label: "%"
  measured result: -41.5
- compound: "CCN(CC(=O)Nc1ccc(NC(C)=O)cc1)C(=O)c1cccc2ccccc12"
  tested system: "human ether-à-go-go-related gene (hERG) potassium channel (human, UniProt Q12809)"
  units label: "%"
  measured result: 1.23
- compound: "O=C(CNC(=O)c1ccc2c(c1)OCCO2)N/N=C/c1ccc(Cl)cc1"
  tested system: "human ether-à-go-go-related gene (hERG) potassium channel (human, UniProt Q12809)"
  units label: "%"
  measured result: 14.1
- compound: "COC(=O)Nc1ccc(S(=O)(=O)N2CCC(Cc3ccccc3)CC2)cc1"
  tested system: "human ether-à-go-go-related gene (hERG) potassium channel (human, UniProt Q12809)"
  units label: "%"
  measured result: 1.4
- compound: "O=C(Nc1ccccc1C(=O)Nc1ccccn1)c1cccc([N+](=O)[O-])c1"
  tested system: "human ether-à-go-go-related gene (hERG) potassium channel (human, UniProt Q12809)"
  units label: "%"
  measured result: -58.2
- compound: "CN(C(=O)c1cc2c(s1)-c1ccccc1S(=O)(=O)C2)c1ccccc1"
  tested system: "human ether-à-go-go-related gene (hERG) potassium channel (human, UniProt Q12809)"
  units label: "%"
  measured result: -0.0159
- compound: "CN(C(=O)c1cc2c(s1)-c1ccccc1S(=O)(=O)C2)c1ccccc1F"
  tested system: "human ether-à-go-go-related gene (hERG) potassium channel (human, UniProt Q12809)"
  units label: "%"
  measured result: -3.69
- compound: "Cc1cc(-n2c(=O)c(C#N)cc3c(=O)n4cccc(C)c4nc32)no1"
  tested system: "human ether-à-go-go-related gene (hERG) potassium channel (human, UniProt Q12809)"
  units label: "%"
  measured result: -65.1
- compound: "O=C(O)C1=C[C@H](c2coc3ccccc3c2=O)C[C@H](OCCCCO)O1"
  tested system: "human ether-à-go-go-related gene (hERG) potassium channel (human, UniProt Q12809)"
  units label: "%"
  measured result: 3.91
- compound: "CC(C)N(CCCNC(=O)CC1Oc2ccccc2NC1=O)Cc1ccccc1 (stereo not drawn)"
  tested system: "human ether-à-go-go-related gene (hERG) potassium channel (human, UniProt Q12809)"
  units label: "%"
  measured result: -26.3
- compound: "N/C(=N\\OC(=O)c1ccc2ccccc2c1)c1ccccn1"
  tested system: "human ether-à-go-go-related gene (hERG) potassium channel (human, UniProt Q12809)"
  units label: "%"
  measured result: 28.3
- compound: "O=C(Nc1ccccc1C(=O)NCCCN1CCOCC1)c1cccc([N+](=O)[O-])c1"
  tested system: "human ether-à-go-go-related gene (hERG) potassium channel (human, UniProt Q12809)"
  units label: "%"
  measured result: -52.7
- compound: "O=C(Nc1ccccc1C(=O)NCCCN1CCOCC1)c1ccccc1"
  tested system: "human ether-à-go-go-related gene (hERG) potassium channel (human, UniProt Q12809)"
  units label: "%"
  measured result: 6.8
- compound: "O=C(NCc1ccccc1)C1=C[C@@H](c2coc3ccccc3c2=O)C[C@@H](OCCCCO)O1"
  tested system: "human ether-à-go-go-related gene (hERG) potassium channel (human, UniProt Q12809)"
  units label: "%"
  measured result: -83.1
- compound: "Cc1cc(-n2c(=O)c(C#N)cc3c(=O)n4ccccc4nc32)no1"
  tested system: "human ether-à-go-go-related gene (hERG) potassium channel (human, UniProt Q12809)"
  units label: "%"
  measured result: -17
- compound: "CCOc1ccc(-c2n[nH]c(C)c2-c2ccccn2)c(O)c1"
  tested system: "human ether-à-go-go-related gene (hERG) potassium channel (human, UniProt Q12809)"
  units label: "%"
  measured result: 13.6
- compound: "O=C(Nc1cc([N+](=O)[O-])ccc1C(=O)NCCN1CCOCC1)c1ccccc1"
  tested system: "human ether-à-go-go-related gene (hERG) potassium channel (human, UniProt Q12809)"
  units label: "%"
  measured result: -44.9
- compound: "Cc1ccccc1NS(=O)(=O)c1ccc(C(=O)NCCCN2CCOCC2)cc1"
  tested system: "human ether-à-go-go-related gene (hERG) potassium channel (human, UniProt Q12809)"
  units label: "%"
  measured result: 9.08
- compound: "O=C(COC(=O)c1cc([N+](=O)[O-])ccc1N1CCOCC1)c1ccc(F)cc1"
  tested system: "human ether-à-go-go-related gene (hERG) potassium channel (human, UniProt Q12809)"
  units label: "%"
  measured result: -55.9
- compound: "CC(=O)Nc1ccc(N2C(=O)CSC2c2cccc([N+](=O)[O-])c2)cc1 (stereo not drawn)"
  tested system: "human ether-à-go-go-related gene (hERG) potassium channel (human, UniProt Q12809)"
  units label: "%"
  measured result: 15.6
- compound: "CCCCN(C)C(=O)c1cc2c(s1)-c1ccccc1S(=O)(=O)C2"
  tested system: "human ether-à-go-go-related gene (hERG) potassium channel (human, UniProt Q12809)"
  units label: "%"
  measured result: -56.5
- compound: "C#CCNC(=O)C1=C[C@H](c2coc3ccccc3c2=O)C[C@H](OCCCCO)O1"
  tested system: "human ether-à-go-go-related gene (hERG) potassium channel (human, UniProt Q12809)"
  units label: "%"
  measured result: -45
- compound: "CCOC(=O)N1CCN(C(=S)NC(=O)c2cc(Br)ccc2Cl)CC1"
  tested system: "human ether-à-go-go-related gene (hERG) potassium channel (human, UniProt Q12809)"
  units label: "%"
  measured result: 3.59
- compound: "Cc1cccc(NC(=O)N2C3CCCC2CC(NC(=O)C(C)(C)C)C3)c1 (stereo not drawn)"
  tested system: "human ether-à-go-go-related gene (hERG) potassium channel (human, UniProt Q12809)"
  units label: "%"
  measured result: 1.47
- compound: "CC(C)CNC(=O)/C=C/C=C/CCCC/C=C/c1ccc2c(c1)OCO2"
  tested system: "human ether-à-go-go-related gene (hERG) potassium channel (human, UniProt Q12809)"
  units label: "%"
  measured result: 20.7
- compound: "Cc1c(C(=O)NCc2ccccc2)cnn1-c1ccccc1"
  tested system: "human ether-à-go-go-related gene (hERG) potassium channel (human, UniProt Q12809)"
  units label: "%"
  measured result: -2.6
- compound: "COc1ccc2[nH]cc(CCNC(=O)C3CC(=O)N(c4ccc(Cl)cc4)C3)c2c1 (stereo not drawn)"
  tested system: "human ether-à-go-go-related gene (hERG) potassium channel (human, UniProt Q12809)"
  units label: "%"
  measured result: -10.4
- compound: "CN(CC(=O)Nc1ccc(F)cc1)C(=O)c1cc([N+](=O)[O-])ccc1N1CCOCC1"
  tested system: "human ether-à-go-go-related gene (hERG) potassium channel (human, UniProt Q12809)"
  units label: "%"
  measured result: -24.9
- compound: "Cc1cc(N2CCC(C)CC2)nc2cccc(O)c12"
  tested system: "human ether-à-go-go-related gene (hERG) potassium channel (human, UniProt Q12809)"
  units label: "%"
  measured result: -28.7
- compound: "O=C(O)C1=C[C@@H](c2coc3ccccc3c2=O)C[C@@H](OCCCCO)O1"
  tested system: "human ether-à-go-go-related gene (hERG) potassium channel (human, UniProt Q12809)"
  units label: "%"
  measured result: 22.8
- compound: "O=C(NCCCN1CCOCC1)c1ccccc1NS(=O)(=O)c1ccc(Br)cc1"
  tested system: "human ether-à-go-go-related gene (hERG) potassium channel (human, UniProt Q12809)"
  units label: "%"
  measured result: -56.1
- compound: "Nc1ccc2c(c1)C(=O)Cc1ccccc1S2"
  tested system: "human ether-à-go-go-related gene (hERG) potassium channel (human, UniProt Q12809)"
  units label: "%"
  measured result: 9.05
- compound: "O=C(NCCCc1ccccc1)c1cc([N+](=O)[O-])ccc1Cl"
  tested system: "human ether-à-go-go-related gene (hERG) potassium channel (human, UniProt Q12809)"
  units label: "%"
  measured result: -12.3
- compound: "O=[N+]([O-])c1cc(Br)c(O)c(/C=N/Nc2nnnn2-c2cccc3ccccc23)c1"
  tested system: "human ether-à-go-go-related gene (hERG) potassium channel (human, UniProt Q12809)"
  units label: "%"
  measured result: 0.778
- compound: "O=C(Nc1ccccc1)C1=C[C@@H](c2coc3ccccc3c2=O)C[C@@H](OCCCCO)O1"
  tested system: "human ether-à-go-go-related gene (hERG) potassium channel (human, UniProt Q12809)"
  units label: "%"
  measured result: -41.1
- compound: "CC(CC(=O)N(CCC1=CCCCC1)c1c(N)n(Cc2ccccc2)c(=O)[nH]c1=O)c1ccccc1 (stereo not drawn)"
  tested system: "human ether-à-go-go-related gene (hERG) potassium channel (human, UniProt Q12809)"
  units label: "%"
  measured result: 17.1
- compound: "O=C(Nc1ccccc1)C1=C[C@H](c2coc3ccccc3c2=O)C[C@H](OCCCCO)O1"
  tested system: "human ether-à-go-go-related gene (hERG) potassium channel (human, UniProt Q12809)"
  units label: "%"
  measured result: -70.3
- compound: "c1ccc(Cc2nn3c(COc4ccccc4)nnc3s2)cc1"
  tested system: "human ether-à-go-go-related gene (hERG) potassium channel (human, UniProt Q12809)"
  units label: "%"
  measured result: 6.61
